# assayComment: Turbidity, derived count rate of scattered light
# Format: physicochemical
# conditionLabel: derived count rate of scattered light
Known Zeta Count Rate / kcps of a selection of substances
measuredEndpoint: Zeta Count Rate / kcps (kcps)

In [3]: df
Out[3]:
                            substance  unitabbrev    measvalue
 0             HHHHKIKIKIKIWWWW [TM4]        kcps  23756.66667
 1          CKIKQIINMWQ [MG5a / CK17]        kcps         8317
 2  QCKIKQIINMWQ [reference compound]        kcps         2602
 3                   KIKQIINMWQ [JG2]        kcps        615.5
 4                    KFKFQFFF [TG12]        kcps         3039
 5                     HLHLPLL [CN14]        kcps          200
 6            HHHHKAKAKAKAYYYY [TM10]        kcps        240.9
 7                 KFKQFFINMWQ [VH14]        kcps         8996
 8                     KVKVQVVV [TG8]        kcps        163.1
 9             KLKQLL [KM27 / psis14]        kcps        319.9
10                    QCKFKQFF [CK12]        kcps        225.4
11                  RGECKFKFQF [CN16]        kcps        219.3
